Test system: HPPD polypeptides
procedureDetails: coupled HPPD activity assay: turnover and residual turnover in crude extracts
Type: biochemical, Pseudomonas fluorescens
conditionDetails: 100 μM Cmpd. 1; signal change with inhibitor divided by signal change without inhibitor
measuredQuantity: Residual turnover [%] (%)
Respond numerically; units are % and should not be typed.

Data request: Give reported Residual turnover [%] value for 21 (protein, mutant HPPD polypeptide) MADLYENPMGLMGFEFIEFASPTPGTLEPIFEIMGFTKVATHRSKNVHLYRQGEINLILNNEPNSIASYFAAEHGPSVCGMAFRVKDSQKAYNRALELGAQPIHIDTGPMELNLPAIKGIGGAPLYLIDRFGEGSSIYDIDFVYLEGVERNPVGAGLKVIDHLTHNVYRGRMVYWANFYEKLFNFREARYFDIKGEYTGLTSKAMSAPDGMIRIPLNEESSKGAGQIEEFLMQFNGEGIQHVAFLTDDLVKTWDALKKIGMRFMTAPADTYYEMLEGRLPDHGEPVDQLQARGILLDGSSVEGDKRLLLQIFSETLMGPVFFEFIQRKGDDGFGPDSFKVLFEQVERDQVRRGVLTAD
Data returned: 51

Data request: Give the measured Residual turnover [%] for 26 (protein, mutant HPPD polypeptide) MADLYENPMGLMGFEFIEFASPTPGTLEPIFEIMGFTKVATHRSKNVHLYRQGEINLILNNEPNSIASYFAAEHGPSVCGMAFRVKDSQKAYNRALELGAQPIHIDTGPMELNLPAIKGIGGAPLYLIDRFGEGSSIYDIDFVYLEGVERNPVGAGLKVIDHLTHNVYRGRMVYWANFYEKLFNFREARYFDIKGEYTGLTSKAMSAPDGMIRIPLNEESSKGAGQIEEFLMQFNGEGIQHVAFLTDDLVKTWDALKKIGMRFMTAPPDTYYEMLEGRLPDHGEPVDQLQARGILLDGSSVEGDKRLLLQIFSETLMGPVFFEFIQRKGDDGFGPHSFKVLFESIERDQVRRGVLTAD
Data returned: 28
